These data points were gathered from the supplement of paper PMC4466140.

# SYSTEM: ScFus1
# PROCEDURE_DETAILS: SPOT peptide array binding signal intensity (averaged, normalized) (arbitrary units (background-subtracted, floor 0; scale differs between SH3 domains)); higher = stronger binding of the SH3 domain to the peptide
Give measured SPOT peptide array binding signal intensity for each item. Keep answers brief.

TYNRTAFQIPGDQSI | ≤ 0
SPLGAPPPPPHKDHL | ≤ 0
SSSSTPPTLPPRRIE | ≤ 0
SSAAPPPPPRRATPE | ≤ 0
FYHRPAPKPPVTKKV | ≤ 0

The record that follows has no SPOT peptide array binding signal intensity shown yet.
What value of measured SPOT peptide array binding signal intensity is listed for VQPTAAPATPPRHIS ?
≤ 0
